Sourced from patent US20210292423A1

# Measured Target: T1, human CD3ε/δ-Fc fusion protein (soluble recombinant CD3ε/δ complex) (human, UniProt P04234 22-105)
# T1 construct: also called huCD3ε/δ; huCD3; not shown: hinge, CH2, CH3 of human IgG with tag
# T1 sequence (chain, as listed by the source mutant, chain 1 of 2): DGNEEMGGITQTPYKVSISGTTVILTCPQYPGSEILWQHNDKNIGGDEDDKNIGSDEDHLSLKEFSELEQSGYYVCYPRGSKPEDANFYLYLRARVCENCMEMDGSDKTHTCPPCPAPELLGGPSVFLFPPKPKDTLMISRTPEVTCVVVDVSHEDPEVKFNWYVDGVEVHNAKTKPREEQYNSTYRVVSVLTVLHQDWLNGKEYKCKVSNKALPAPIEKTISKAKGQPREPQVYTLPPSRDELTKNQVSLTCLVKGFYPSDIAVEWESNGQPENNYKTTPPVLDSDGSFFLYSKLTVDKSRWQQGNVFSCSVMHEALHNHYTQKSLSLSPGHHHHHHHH
# T1 sequence (P04234 22-105, stated change not applied, chain 2 of 2): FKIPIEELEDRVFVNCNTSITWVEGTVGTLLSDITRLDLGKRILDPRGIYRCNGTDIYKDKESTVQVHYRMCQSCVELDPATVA
# Assay Details: SPR Biacore, Fab
Observation Type: koff (s⁻¹)
Provide the reading as a plain figure in s⁻¹.

{"Binder": "4E7-C9 Fab (Fab, V domains shown, also called BDX-4E7-C9) VH: EVQVVETGGSLVQPGKSLKLTCATSGFTFSNAWMHWVRQSPEKQLEWVAQIKDKSNNYATYYAESLKGRFTISRDDPKRSIYLQMNSLREEDTAIYYCRYVHYGIGYAMDAWGQGTSVTVSS VL: DVVMTQTPVSLSVSLGGQVSISCRSSQSLEHNNGNTYLSWYLQKPGQSPQPLIYKVSNRFSGISDRFSGSGSGTDFTLKISRVEPDDLGVYYCGQGTQYPFTFGPGTKLELKR", "Observation Type": "koff", "Assay Result": 0.0015}
{"Binder": "4B4-D7 Fab (Fab, V domains shown, also called BDW-4B4-D7) VH: EVQLVETGGRLVQPGRSLKLTCATSGFTFSNAWMHWVRQSPEKQLEWVAQIKARSNNYATYYAESVKGRFTISRDDSKSTIYLQMNSLKEEDTAIYYCRGTYYASKPFDYWGQGVMVTVSS VL: DVVMTQTPVSLSVSLGGQVSISCRSSQSLVHDNGNTYLSWSLQRPGQSPQVLIYKVSNRFSGTSDRFTGSGSGTDFTLKISRVEPDDLGVYYCGQGTQYPFTFGSGTKLEIKR", "Observation Type": "koff", "Assay Result": 0.0029}

Input: Return reported koff; argument: 20G6-F3 Fab (Fab, V domains shown, also called BDW-20G6-F3) VH: EVQLVETGGSLVQPGKSLKLTCATSGFTFTKAWMHWVRQSPEKQLEWVAQIKDKSNSYATYYAESVKGRFTISRDDSKSTIYLQMNSLKEEDTAIYYCRGVYYALSPFDYWGQGVMVTVSS VL: DVVMTQTPVSLSVSLGGQVSISCRSSQSLVHNNGNTYLSWYLQKPGQSPQSLIYKVSNRFSGFSDRFSGSGSGTDFTLKISRVDPDDLGVYYCGQGTQYPFTFGSGTKLEIKR
Output: 0.00027

Input: Return reported koff; argument: 18F5-H10 Fab (Fab, V domains shown, also called BDX-18F5-H10) VH: EVQVVETGGSLVQPGKSLKLTCATSGFTFTNAWMHWVRRSPEKQLEWVAQIKDKSNNYATYYAESVKGRFTISRDDSKSSIYLQMNSLKEEDTAIYYCRYVHYRFAYALDAWGRGTSVSVSS VL: DVLMTQTPVSLSVSLGGQVSISCRSSQSLVHTNGNTYLSWYLQKPGQSPQLLIYKVSNRLSGISDRFSGSGSGTDFTLKISRVEPDDLGVYYCGQGTHYPFTFGAGTKLELKR
Output: 0.00018
